Recorded solubility at 2 h for the following compounds
- Procedure summary: Solubility testing of peptides at different pH
- Type: physicochemical
- Settings: 50 mM phosphate buffer pH 9.0; target concentration 1 mg/ml; 2 hours agitation; read-out: Solubility Buffer pH 9.0
- Procedure: Prior to the solubility measurement of a synthesized peptide batch, its purity was determined through UPLC/MS (methods B-G). For solubility testing the target concentration was 1 mg pure compound/ml. […] The solubility was determined by the comparison of the UV peak area of 2 μL-injections of a buffered sample diluted 1:5 with a standard curve of a dimethyl sulfoxide reference sample of the diluted in dimethyl sulfoxide with known concentration. […]
Starred links: 1 amine or outer side, 2 acyl side, 3 side chain; linkers in the order of their positions; H or OH if unused. Positions of bridges follow the written chain, without caps; N, C: chain ends. Non-standard residues stand in square brackets, D forms with d. Residues, ends and D or L forms follow the SMILES beside them. *: point of attachment. X5 = CN(C(=O)CCC(=O)[*:3])[C@@H](CS[*:2])C(=O)[*:1]; X3 = CN(CCCCC(=O)N[C@@H](CS[*:2])C(=O)[*:1])[*:3]; Trp(7-Me) = Cc1cccc2c(C[C@H](N)C(=O)O)c[nH]c12; X1 = O=C(CCCCN[*:3])N[C@@H](CS[*:2])C(=O)[*:1]; 2Nal = N[C@@H](Cc1ccc2ccccc2c1)C(=O)O; AEF = NCCOc1ccc(C[C@H](N)C(=O)O)cc1; 3Pal = N[C@@H](Cc1cccnc1)C(=O)O; Lys(Me) = CNCCCC[C@H](N)C(=O)O; Thp = NC1(C(=O)O)CCOCC1; Me2NCH2CH2 = CN(C)CC*; Aib = CC(C)(N)C(=O)O; Ava = NCCCCC(=O)O; Sar = CNCC(=O)O
# unit: µg/mL | format: bare number

[[record]]
compound = "CC(=O)NCCCC[C@@H]1NC(=O)[C@H](Cc2c[nH]c3c(C)cccc23)NC(=O)[C@@H](NC(C)=O)CCCCNC(=O)[C@@H]2CSSC[C@H](NC1=O)C(=O)N[C@@H](Cc1ccc(OCCN(C)C)cc1)C(=O)N[C@@H](Cc1ccc3ccccc3c1)C(=O)NC1(CCOCC1)C(=O)N[C@H](C(=O)N[C@@H](CC(N)=O)C(=O)N[C@@H](Cc1cccnc1)C(=O)N(C)CC(N)=O)CCCCN(C)C(=O)CCC(=O)N2C [compound 74] (Ac-K[Trp(7-Me)]K(Ac)CY(Me2NCH2CH2)[2Nal][Thp][Lys(Me)]N[3Pal][Sar]-NH2; linker 1-4-8 via X5)"
measurement_type = "solubility at 2 h"
reported_result = 180

[[record]]
compound = "COc1ccc(C[C@@H]2NC(=O)[C@@H]3CSSC[C@H](NC(=O)CCCCNC(=O)CC[C@@H](C(=O)N[C@@H](CC(N)=O)C(=O)NCC(N)=O)NC(=O)C(C)(C)NC(=O)[C@H](Cc4ccc5ccccc5c4)NC2=O)C(=O)N[C@@H](CC(N)=O)C(=O)N[C@@H]([C@@H](C)O)C(=O)N[C@@H](Cc2c[nH]c4ccccc24)C(=O)N[C@@H](CCC(N)=O)C(=O)N3)cc1 [compound 4] ([Ava]CNTWQCY(Me)[2Nal][Aib]ENG-NH2; disulfide 2-7; lactam N-11)"
measurement_type = "solubility at 2 h"
reported_result = 10

[[record]]
compound = "CC(=O)N[C@H]1CCCCNC(=O)[C@@H]2CSSC[C@H](NC(=O)[C@H](CCC(N)=O)NC(=O)[C@H](Cc3c[nH]c4ccccc34)NC1=O)C(=O)N[C@@H](Cc1ccc(OCCN(C)C)cc1)C(=O)N[C@@H](Cc1ccc3ccccc3c1)C(=O)NC(C)(C)C(=O)N[C@H](C(=O)N[C@@H](C)C(=O)NCC(N)=O)CCC(=O)NCCCCC(=O)N2 [compound 32] (Ac-KWQCY(Me2NCH2CH2)[2Nal][Aib]EAG-NH2; linker 1-4-8 via X1)"
measurement_type = "solubility at 2 h"
reported_result = 170


Shift focus to the following entry.
Query: Recorded solubility at 2 h for CC(=O)N[C@H]1CCCCNC(=O)[C@@H]2CSSC[C@H](NC(=O)[C@H](CCC(N)=O)NC(=O)[C@H](Cc3c[nH]c4ccccc34)NC1=O)C(=O)N[C@@H](Cc1ccc(OCCN)cc1)C(=O)N[C@@H](Cc1ccc3ccccc3c1)C(=O)NC(C)(C)C(=O)N[C@H](C(=O)N[C@@H](CC(N)=O)C(=O)N[C@@H](CC(N)=O)C(N)=O)CCC(=O)N(C)CCCCC(=O)N2 [compound 12] (Ac-KWQC[AEF][2Nal][Aib]ENN-NH2; linker 1-4-8 via X3) , please?
Reply: 110
